# EXPERIMENT: gradient 5% acetonitrile 3 min, to 50% in 2 min, to 85% in 15 min, held 3 min, 100 µL/min
# CONDITIONS USED: column: Zorbax Extend-C18 2.1 x 50 mm; eluents: water / acetonitrile, 0.1% formic acid
Field: RP-LC retention time. Provide a value for each of the compounds that follow.
Numbers only, in s.

Check out these entries, answers already filled in.
>  <COMPOUND>
O=C(Nc1nnc(-c2ccsc2)o1)c1ccno1

>  <UNITS LABEL>
s

>  <RP-LC retention time>
617

$$$$
>  <COMPOUND>
Cc1nnc(-c2nnc(NCc3ccccc3F)c3ccccc23)o1

>  <UNITS LABEL>
s

>  <RP-LC retention time>
819

$$$$
>  <COMPOUND>
CCN(CC)C(=O)N1CCC2(CC1)CC(N1CCN(c3ccccc3)CC1)CCO2 (centres undefined)

>  <UNITS LABEL>
s

>  <RP-LC retention time>
582

$$$$
>  <COMPOUND>
Cc1cccc(NC(=O)NC2CCN(c3cc(C)cc(C)c3)C2=O)c1 (centres undefined)

>  <UNITS LABEL>
s

>  <RP-LC retention time>
945

$$$$
>  <COMPOUND>
O=C(Cn1nc(N2CCCC2)c2ccccc2c1=O)Nc1ccc(F)c(F)c1

>  <UNITS LABEL>
s

>  <RP-LC retention time>
950

$$$$
>  <COMPOUND>
CCOC(=O)c1c(C)[nH]c2cc(Br)c(O)cc12

>  <UNITS LABEL>
s

>  <RP-LC retention time>
768

$$$$
>  <COMPOUND>
CN1CCN(CCCNC(=O)Cn2c(=O)c3cccn3c3ccc(F)cc32)CC1

>  <UNITS LABEL>
s

>  <RP-LC retention time>
589

$$$$
>  <COMPOUND>
Cc1ccc(C)c(N2CCN(c3ccncc3N)CC2)c1

>  <UNITS LABEL>
s

>  <RP-LC retention time>
777

$$$$

Then there is this compound:
INPUT: # return recorded RP-LC retention time for input COc1ccc(-c2nc(-c3cn(Cc4ccc(F)cc4)nn3)no2)cc1OC
OUTPUT: 914

* * *

# EXPERIMENT: gradient 5% acetonitrile 3 min, to 50% in 2 min, to 85% in 15 min, held 3 min, 100 µL/min
# CONDITIONS USED: column: Zorbax Extend-C18 2.1 x 50 mm; eluents: water / acetonitrile, 0.1% formic acid
Grouping rule (RP-LC retention time): lo = under 700 s, mid = from 700 s up to 900 s, hi = 900 s and over

INPUT: Class? Entry: CNC(=O)c1cc2c(C)nn(-c3cccc(F)c3)c2s1
OUTPUT: mid

* * *

# EXPERIMENT: gradient 5% acetonitrile 3 min, to 50% in 2 min, to 85% in 15 min, held 3 min, 100 µL/min
# CONDITIONS USED: column: Zorbax Extend-C18 2.1 x 50 mm; eluents: water / acetonitrile, 0.1% formic acid
Answer no if RP-LC retention time is under 800 s, and yes if it is 800 s or more.

>  <MOLECULE>
COc1ccc(CNC(=O)c2cc3c(s2)N(C)CCC3)c(OC)c1

>  <LABEL>
yes

$$$$

INPUT: Could you please find out whether COC1CN(C2CCN(C(=O)CC(C)C)CC2)C12CCOCC2 (stereo not given) has RP-LC retention time that meets 800 s or exceeds it?
OUTPUT: no

INPUT: Could you please find out whether CCCN(CC1CCOC1)C(=O)Nc1ccc(C)c(F)c1 (stereo not given) has RP-LC retention time that meets 800 s or exceeds it?
OUTPUT: yes

INPUT: Could you please find out whether O=C(Cn1cccc1-c1nc(-c2ccc(Cl)cc2)cs1)NCc1ccco1 has RP-LC retention time that meets 800 s or exceeds it?
OUTPUT: yes

INPUT: Could you please find out whether COc1ccc(-c2csc3c(=O)n(CC(=O)OC(C)(C)C)cnc23)cc1 has RP-LC retention time that meets 800 s or exceeds it?
OUTPUT: yes

INPUT: Could you please find out whether Cc1ccc(-c2csc(Cc3nc(-c4ccccc4Cl)no3)n2)cc1 has RP-LC retention time that meets 800 s or exceeds it?
OUTPUT: yes

INPUT: Could you please find out whether COc1cc(OC)c(NC(=O)C2=C(C)C(=O)OC23CCN(C(C)C)CC3)cc1Cl has RP-LC retention time that meets 800 s or exceeds it?
OUTPUT: no

INPUT: Could you please find out whether CCn1cc(S(=O)(=O)N2CCC(n3c(C)cnc3-c3ccccc3)CC2)cn1 has RP-LC retention time that meets 800 s or exceeds it?
OUTPUT: no

INPUT: Could you please find out whether COc1ccccc1N1CCN(c2cc(SCC(=O)Nc3ccccc3F)ncn2)CC1 has RP-LC retention time that meets 800 s or exceeds it?
OUTPUT: yes

INPUT: Could you please find out whether Clc1ccc(C2Cn3nnc(-c4nc(-c5ccccn5)no4)c3CO2)cc1 (stereo not given) has RP-LC retention time that meets 800 s or exceeds it?
OUTPUT: yes

INPUT: Could you please find out whether COc1ccc(Cn2c(=O)n(C(C)C)c(=O)c3oc4ccccc4c32)cc1 has RP-LC retention time that meets 800 s or exceeds it?
OUTPUT: yes

INPUT: Could you please find out whether CCOc1ccc2ccccc2c1C(=O)NCCc1ccsc1 has RP-LC retention time that meets 800 s or exceeds it?
OUTPUT: yes

INPUT: Could you please find out whether O=C1NC2(CCN(C(=O)Nc3ccc(Cl)cc3)CC2)N=C1c1ccccc1 has RP-LC retention time that meets 800 s or exceeds it?
OUTPUT: yes

INPUT: Could you please find out whether COc1ccccc1-n1c(SCC(=O)Nc2cc(C)on2)nc2c(c1=O)SCC2 has RP-LC retention time that meets 800 s or exceeds it?
OUTPUT: no

INPUT: Could you please find out whether CCc1nn2c(CNC(=O)c3cccc(Cl)c3)c(-c3ccccc3)nc2s1 has RP-LC retention time that meets 800 s or exceeds it?
OUTPUT: yes

INPUT: Could you please find out whether COc1ccc(CC(=O)Nc2nnc(SCc3nnc(-c4ccccc4C)o3)s2)cc1 has RP-LC retention time that meets 800 s or exceeds it?
OUTPUT: yes

INPUT: Could you please find out whether COc1cc(Br)c(C2C(C(=O)N3CCOCC3)=C(C)NC3=C2C(=O)CCC3)cc1OC (stereo not given) has RP-LC retention time that meets 800 s or exceeds it?
OUTPUT: no

INPUT: Could you please find out whether O=c1c2cc3c(cc2nc(SCc2nc(-c4cccc(F)c4)no2)n1-c1ccc(F)cc1)OCO3 has RP-LC retention time that meets 800 s or exceeds it?
OUTPUT: yes

The origin of these recorded values is the METLIN SMRT retention time set (Domingo-Almenara et al. 2019).
